System: Staphylococcus aureus
procedure text: Ratio of compound IZ to amikacin IZ for Staphylococcus aureus MTCC 96 at 10 ug/ml by disk diffusion method
Assay type: functional
Checkbox rule: Ratio lower than 0.6 = met; Ratio not lower than 0.6 = not met.

Strictly below 0.6: is that where Ratio of CCOC(=O)C1C(c2cccnc2)N(N=O)C(c2cccnc2)C(C(=O)OCC)S1(=O)=O (stereo not drawn) sits?
not met

Strictly below 0.6: is that where Ratio of CCOC(=O)C1C(c2ccc(Cl)cc2)N(N=O)C(c2ccc(Cl)cc2)C(C(=O)OCC)S1(=O)=O (stereo not drawn) sits?
met

Strictly below 0.6: is that where Ratio of CCOC(=O)C1C(c2ccc[nH]2)N(N=O)C(c2ccc[nH]2)C(C(=O)OCC)S1(=O)=O (stereo not drawn) sits?
not met

Strictly below 0.6: is that where Ratio of CCOC(=O)C1C(c2ccccc2Cl)N(N=O)C(c2ccccc2Cl)C(C(=O)OCC)S1(=O)=O (stereo not drawn) sits?
met

Strictly below 0.6: is that where Ratio of CCOC(=O)C1C(c2cccs2)N(N=O)C(c2cccs2)C(C(=O)OCC)S1(=O)=O (stereo not drawn) sits?
not met

Strictly below 0.6: is that where Ratio of CCOC(=O)C1C(c2cccc([N+](=O)[O-])c2)N(N=O)C(c2cccc([N+](=O)[O-])c2)C(C(=O)OCC)S1(=O)=O (stereo not drawn) sits?
not met

###

Give zone of inhibition at 10 µg/mL for every item shown.
Tested on: Streptococcus pyogenes
procedure text: Antibacterial activity against Streptococcus pyogenes MTCC 389 at 10 ug/ml by disk diffusion method
Format: functional
experimental context: read-out: IZ
Answer in mm, number only, no unit symbol.

Give the measured zone of inhibition at 10 µg/mL of CCOC(=O)C1C(c2ccco2)N(N=O)C(c2ccco2)C(C(=O)OCC)S1(=O)=O (stereo not drawn) .
11

Give the measured zone of inhibition at 10 µg/mL of CCOC(=O)C1C(c2ccccc2Cl)N(N=O)C(c2ccccc2Cl)C(C(=O)OCC)S1(=O)=O (stereo not drawn) .
10

Give the measured zone of inhibition at 10 µg/mL of CCOC(=O)C1C(c2cc3ccccc3nc2Cl)N(N=O)C(c2cc3ccccc3nc2Cl)C(C(=O)OCC)S1(=O)=O (stereo not drawn) .
12

###

Tested on: Streptococcus pyogenes
procedure text: Antibacterial activity against Streptococcus pyogenes MTCC 389 at 10 ug/ml by disk diffusion method
Format: functional
experimental context: read-out: IZ
observable: zone of inhibition at 10 µg/mL (mm)
Answer in mm, number only, no unit symbol.

Give the measured zone of inhibition at 10 µg/mL of CCOC(=O)C1C(c2ccc[nH]2)N(N=O)C(c2ccc[nH]2)C(C(=O)OCC)S1(=O)=O (stereo unspecified) .
14

Give the measured zone of inhibition at 10 µg/mL of CCOC(=O)C1C(c2cccnc2)N(N=O)C(c2cccnc2)C(C(=O)OCC)S1(=O)=O (stereo unspecified) .
8

Give the measured zone of inhibition at 10 µg/mL of NCC[C@H](O)C(=O)N[C@@H]1C[C@H](N)[C@@H](O[C@H]2O[C@H](CN)[C@@H](O)[C@H](O)[C@H]2O)[C@H](O)[C@H]1O[C@H]1O[C@H](CO)[C@@H](O)[C@H](N)[C@H]1O [AMIKACIN] .
20

Give the measured zone of inhibition at 10 µg/mL of CCOC(=O)C1C(c2ccccn2)N(N=O)C(c2ccccn2)C(C(=O)OCC)S1(=O)=O (stereo unspecified) .
11

Give the measured zone of inhibition at 10 µg/mL of CCOC(=O)C1C(c2cccc(Cl)c2)N(N=O)C(c2cccc(Cl)c2)C(C(=O)OCC)S1(=O)=O (stereo unspecified) .
8

Give the measured zone of inhibition at 10 µg/mL of CCOC(=O)C1C(c2ccc(C)cc2)N(N=O)C(c2ccc(C)cc2)C(C(=O)OCC)S1(=O)=O (stereo unspecified) .
17

Give the measured zone of inhibition at 10 µg/mL of CCOC(=O)C1C(c2cccs2)N(N=O)C(c2cccs2)C(C(=O)OCC)S1(=O)=O (stereo unspecified) .
15

Give the measured zone of inhibition at 10 µg/mL of CCOC(=O)C1C(c2ccc3c(c2)OCO3)N(N=O)C(c2ccc3c(c2)OCO3)C(C(=O)OCC)S1(=O)=O (stereo unspecified) .
11

Give the measured zone of inhibition at 10 µg/mL of CCOC(=O)C1C(c2ccsc2)N(N=O)C(c2ccsc2)C(C(=O)OCC)S1(=O)=O (stereo unspecified) .
9

Give the measured zone of inhibition at 10 µg/mL of CCOC(=O)C1C(c2ccc(OC)cc2)N(N=O)C(c2ccc(OC)cc2)C(C(=O)OCC)S1(=O)=O (stereo unspecified) .
13

Give the measured zone of inhibition at 10 µg/mL of CCOC(=O)C1C(c2ccc(Cl)cc2)N(N=O)C(c2ccc(Cl)cc2)C(C(=O)OCC)S1(=O)=O (stereo unspecified) .
10

Give the measured zone of inhibition at 10 µg/mL of CCOC(=O)C1C(c2ccc([N+](=O)[O-])cc2)N(N=O)C(c2ccc([N+](=O)[O-])cc2)C(C(=O)OCC)S1(=O)=O (stereo unspecified) .
17

Give the measured zone of inhibition at 10 µg/mL of CCOC(=O)C1C(c2c[nH]c3ccccc23)N(N=O)C(c2c[nH]c3ccccc23)C(C(=O)OCC)S1(=O)=O (stereo unspecified) .
9

Give the measured zone of inhibition at 10 µg/mL of CCOC(=O)C1C(c2cccc([N+](=O)[O-])c2)N(N=O)C(c2cccc([N+](=O)[O-])c2)C(C(=O)OCC)S1(=O)=O (stereo unspecified) .
9

Give the measured zone of inhibition at 10 µg/mL of CCOC(=O)C1C(c2ccc(OC)c(OC)c2)N(N=O)C(c2ccc(OC)c(OC)c2)C(C(=O)OCC)S1(=O)=O (stereo unspecified) .
8

Give the measured zone of inhibition at 10 µg/mL of CCOC(=O)C1C(c2ccccc2)N(N=O)C(c2ccccc2)C(C(=O)OCC)S1(=O)=O (stereo unspecified) .
15
